The measurements presented in this section are drawn from the RNAGym collection of RNA variant scans (doi:10.1126/science.aae0568).

Reported yeast fitness values for a set of variants
B1: tRNA (parent)
chain: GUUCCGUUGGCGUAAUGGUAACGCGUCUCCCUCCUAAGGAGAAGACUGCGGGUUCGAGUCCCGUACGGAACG

variants of: B1; test: yeast fitness relative to wild type (ratio to wild type); higher = fitter; tRNA-Arg(CCU), competitive growth, 37 C, YPD
Variants at the floor of the assay were thinned out.
Give the value as a plain number.

Worked examples, 3 variants total:
Sequence Content	yeast fitness
GUUCCGUUGGCGUAAUGGUAACGCGUCUCCUUCCUAACGAGAAGACUGCGGGUUCGAGUCCCAUACGCGACG [C31U G38C G63A G68C A69G]	0.673
GUUCCGUUGACGUAAUGGUAACGCGUCUCCCUCCUAAGGAGAAGGGUGCGGGUGCGAGUCCCGUACGGACCG [G10A A45G C46G U54G A70C]	0.532
GUUCCGUUGGCGUAAUGGUAGCGCGUCUUCCUCCUAAGGACAAGACUGCGGGUUCGAGUCCCGUACGGAACG [A21G C29U G41C]	0.562

Give a short answer stating reported yeast fitness for GUUGCGUUGGUGUAAUGGUAACGCGUCUCCCUCCUAAGGCGAAGACUGCGGGUUCGUGUCCCGUACGGAACG [C4G C11U A40C A57U] .
0.623

Give a short answer stating reported yeast fitness for GUUUCGUUGCCGUAAUGGUAACGCGUCUCCCUCCUAAGGAGAAGACUGCGGGUUCGAGUCCCGUACGGAACG [C4U G10C] .
0.625
